src = patent US20130012436A1

For each record, write down the corresponding IL-22 EC50.
- Assayed system: T1, human IL-23 (human, UniProt Q9NPF7 20-189; P29460 23-328)
- T1 sequence (looked up) 1: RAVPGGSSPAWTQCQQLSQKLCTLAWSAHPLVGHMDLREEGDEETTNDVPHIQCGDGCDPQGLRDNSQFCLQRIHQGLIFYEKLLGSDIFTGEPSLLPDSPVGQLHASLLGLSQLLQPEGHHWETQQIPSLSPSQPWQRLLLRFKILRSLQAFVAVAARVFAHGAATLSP
- T1 sequence (looked up) 2: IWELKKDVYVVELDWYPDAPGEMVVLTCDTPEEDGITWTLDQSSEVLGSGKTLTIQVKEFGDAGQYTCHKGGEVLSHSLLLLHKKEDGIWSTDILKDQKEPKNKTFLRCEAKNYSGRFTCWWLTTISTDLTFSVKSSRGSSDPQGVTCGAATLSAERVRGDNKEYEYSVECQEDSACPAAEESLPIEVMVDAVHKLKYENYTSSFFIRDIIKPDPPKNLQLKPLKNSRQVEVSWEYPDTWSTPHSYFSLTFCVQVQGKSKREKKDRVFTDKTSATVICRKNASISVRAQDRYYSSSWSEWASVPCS
- Protocol summary: cell-based or functional assay
Give bare numbers, in nM.

INSERT INTO assay_data (binder, quantity_measured, reported_measurement) VALUES
  ('1571G04 (designed binder, captured by anti-His mAb) MGVSDVPRDLEVVAATPTSLLISWGHYPLHVRYYRITYGETGGNSPVQEFTVPPRSHTATISGLKPGVDYTITVYAVTYYAQENYKEIPISINYRTEIDKPSQHHHHHH', 'IL-22 EC50', 1.3),
  ('1490B03 (designed binder, captured by anti-His mAb) MGVSDVPRDLEVVAATPTSLLISWGHYPLHVRYYRITYGETGGNSPVQEFTVPSRKYTATISGLKPGVDYTITVYAVTYYKEANYREIPISINYRTEIDKPSQHHHHHH', 'IL-22 EC50', 1.7),
  ('1572G06 (designed binder, captured by anti-His mAb) MGVSDVPRDLEVVAATPTSLLISWGHYPLHVRYYRITYGETGGNSPVQEFTVPRYKYTATISGLKPGVDYTITVYAVTYYAQENYKEIPISINYRTEIDKPSQHHHHHH', 'IL-22 EC50', 1.9);

Now take the following binder into account.
Q) Query: IL-22 EC50; subject: 1571G06 (designed binder, captured by anti-His mAb) MGVSDVPRDLEVVAATPTSLLISWGHYPLHLRYYRITYGETGGNSPVQEFTVPRTKYTATISGLKPGVDYTITVYAVTYYKEADYSQIPISINYRTEIDKPSQHHHHHH
A) 5.1
